Catalogue of pKd values
Target: T1, Bcd homeodomain (Drosophila melanogaster, UniProt P09081-2 77-166)
T1 sequence: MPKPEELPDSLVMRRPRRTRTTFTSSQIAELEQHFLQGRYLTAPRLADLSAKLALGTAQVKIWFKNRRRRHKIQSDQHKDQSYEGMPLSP
Assay: FP; 33 mM phosphate pH 7.0, 90 mM NaCl, 0.01% Tween 20, 0.1 mM DTT, 0.5% agarose; room temperature
Conditions: tags: N-GST (pGEX-6P-1, kept); printed reverse strand differs at base 6 of strand 1 (G / C); complement of the forward strand used
# pKd is unitless: minus log10 of the molar concentration; print number only

Q) Consider the binder Bcd oligo 29 (dsDNA) DNA 1: TCGACGGTAATCCTTA DNA 2: TAAGGATTACCGTCGA and give its measured pKd.
A) 8.39

Q) Input Bcd oligo 20 (dsDNA) DNA 1: TCGACGGTAAGCCCTA DNA 2: TAGGGCTTACCGTCGA
A) 7.73

Q) Input Bcd oligo 21 (dsDNA) DNA 1: TCGACGGTAAACCCTA DNA 2: TAGGGTTTACCGTCGA
A) 7.31

Q) Input Bcd oligo 28 (dsDNA) DNA 1: TCGACGGTAATCCGTA DNA 2: TACGGATTACCGTCGA
A) 8.44

Q) Input Bcd oligo 17 (dsDNA) DNA 1: TCGACGGTAGTCCCTA DNA 2: TAGGGACTACCGTCGA
A) 7.34

Q) Input Bcd oligo 19 (dsDNA) DNA 1: TCGACGGTAACCCCTA DNA 2: TAGGGGTTACCGTCGA
A) 7.03
